Target: human IGF1R extracellular domain, His-tagged (human) (UniProt P08069)
Assay: ELISA on ECD of IGF1R
Reported EC50 is given for each of the following binders.
Supply the numeric figure in nM, leaving out any unit text.

Past entries and their recorded results:
Binder: Hu3A9-B10 (bispecific antibody, part only; not given: Hu3A9 heavy and light chains, part only) heavy, part: GGGGSGGGGSGGGGSQSVLTQPPSASGTPGQRVTISCTGSSSNIGSNDVSWYQQLPGTAPKLLIYANSNRPSGVSDRFSGSKSGTSASLAISGLRSEDEADYYCGSWDVSLNGYVFGGGTKLTVLGGGGSGGGGSGGGGSGGGGSEVQLLESGGGLVQPGGSLRLSCAASGFTFSSYDMSWVRQAPGKGLEWVSAISYDNGNTYYADSVKGRFTISRDNSKNTLYLQMNSLRAEDTAVYYCAKGVLTTLMNWFDYWGQGTLVTVSS
U: nM
EC50: 0.156

Binder: Hu3A9-B01 (bispecific antibody, part only; not given: Hu3A9 heavy and light chains, part only) heavy, part: GGGGSGGGGSGGGGSQSVLTQPPSASGTPGQRVTISCTGSSSNIGSNDVSWYQQLPGTAPKLLIYANSNRPSGVSDRFSGSKSGTSASLAISGLRSEDEADYYCGAWDDSLNGYVFGGGTKLTVLGGGGSGGGGSGGGGSGGGGSEVQLLESGGGLVQPGGSLRLSCAASGFTFSSYDMSWVRQAPGKGLEWVSAISWDKAQPYYADSVKGRFTISRDNSKNTLYLQMNSLRAEDTAVYYCAKGVLTTLMNWFDYWGQGTLVTVSS
U: nM
EC50: 0.145

Binder: Hu3A9-E09 (bispecific antibody, part only; not given: Hu3A9 heavy and light chains, part only) heavy, part: GGGGSGGGGSGGGGSQSVLTQPPSASGTPGQRVTISCTGSSSNIGSNDVSWYQQLPGTAPKLLIYANSNRPSGVSDRFSGSKSGTSASLAISGLRSEDEADYYCGAWDDSLNGYVFGGGTKLTVLGGGGSGGGGSGGGGSGGGGSEVQLLESGGGLVQPGGSLRLSCAASGFTFSSYDMSWVRQAPGKGLEWVSAISWGQGKTYYADSVKGRFTISRDNSKNTLYLQMNSLRAEDTAVYYCAKGVLTTLMNWFDYWGQGTLVTVSS
U: nM
EC50: 0.159

Binder: Hu3A9-A02 (bispecific antibody, part only; not given: Hu3A9 heavy and light chains, part only) heavy, part: GGGGSGGGGSGGGGSQSVLTQPPSASGTPGQRVTISCTGSSSNIGSNDVSWYQQLPGTAPKLLIYANSNRPSGVSDRFSGSKSGTSASLAISGLRSEDEADYYCGAWDTTLNGYVFGGGTKLTVLGGGGSGGGGSGGGGSGGGGSEVQLLESGGGLVQPGGSLRLSCAASGFTFSSYDMSWVRQAPGKGLEWVSAISYDNGNTYYADSVKGRFTISRDNSKNTLYLQMNSLRAEDTAVYYCAKGVLTTLMNWFDYWGQGTLVTVSS
U: nM
EC50: 0.13

Problem: Need EC50, item Hu3A9-1564 (bispecific antibody, part only; not given: Hu3A9 heavy and light chains, part only) heavy, part: GGGGSGGGGSGGGGSQSVLTQPPSASGTPGQRVTISCTGSSSNIGSNDVSWYQQLPGTAPKLLIYANSNRPSGVPDRFSGSKSGTSASLAISGLRSEDEADYYCGAWDDSLNGYVFGCGTKLTVLGGGGSGGGGSGGGGSGGGGSEVQLLESGGGLVQPGGSLRLSCAASGFTFSSYDMSWVRQAPGKCLEWVSAISYDNGNTYYADSVKGRFTISRDNSKNTLYLQMNSLRAEDTAVYYCAKGVLTTLMNWFDYWGQGTLVTVSS
Result: 0.144
